Tested on: OVCAR-5
Assay: NCI tumour cell line growth inhibition, 48 h
The source made the active and inactive calls. Cut-off read from the data, not from the text of the source: active = GI50 up to about 1.1 µM and inactive = higher.
Write down the outcome that applies. Available outcomes: active, inactive

QUERY: In this assay, the call recorded for CCOC(=O)C(NC(=O)CC(C)C)(Nc1ccc(S(=O)(=O)Nc2nc(C)cc(C)n2)cc1)C(F)(F)F (centres undefined) was what?
RESULT: inactive

QUERY: Called result for "COc1cc2c(cc1OCCCNC(=O)c1cc3ccccc3[nH]1)N=C[C@@H]1CCCN1C2=O"
RESULT: active

QUERY: Could you please tell me the result logged for CN(C)CCNC(=O)c1cccc2c(NC(CCCNC(=N)N)C(=O)O)c3ccccc3nc12 (centres undefined) in this assay?
RESULT: inactive

QUERY: Give the logged outcome of this assay for the following molecule: "O=c1oc2ncccc2n1Cc1ccc([N+](=O)[O-])cc1"
RESULT: inactive

QUERY: Entry "Oc1ccc(Cl)cc1-c1cc(-c2ccccc2)nc(S)n1" : call = ?
RESULT: inactive

QUERY: For "N=C(NCc1ccccc1)N/N=C\c1ccnc2ccccc12" , which call appears in the assay record?
RESULT: inactive

QUERY: Given "Cc1oc2c(c1C(=O)c1ccccc1)C(=O)c1ccccc1C2=O" , state the outcome it received in this test.
RESULT: inactive

QUERY: Recorded call for C=CC12CN(C)C3C4COC(CC41)C1(C(=O)Nc4ccccc41)C32 (centres undefined) ?
RESULT: inactive

QUERY: Please share the test call associated with CC1C2=C(O)CC(C)(C)CC2=NC2=C1C(=O)CC(C)(C)C2 (centres undefined) .
RESULT: inactive

QUERY: Just curious, what result did "NCCCN1CCN(CCCNc2ccc3ncn4c5ccccc5c(=O)c2c34)CC1" get here?
RESULT: inactive

QUERY: Dear all, I need the recorded test outcome for "CN(C)c1ccc(/C=C(\NC(=O)c2ccccc2)c2nc3ccc4c(c3[nH]2)C(=O)c2ccccc2C4=O)cc1" , thank you.
RESULT: inactive

QUERY: Record request — test call for "Oc1ccccc1CNCc1nc2ccccc2[nH]1"
RESULT: inactive

QUERY: Dear all, I need the recorded test outcome for "COc1cc(/C=C(/C#N)C(N)=O)ccc1O" , thank you.
RESULT: inactive

QUERY: Which outcome was entered for the molecule "C/C(=N\Nc1nc2ccccc2o1)c1ccc2ccccc2n1" in this test?
RESULT: inactive

----------
System: SR
Assay: NCI tumour cell line growth inhibition, 48 h
The source made the active and inactive calls. Rule as the data show it: active = GI50 up to about 1.1 µM and inactive = higher.
Attribute: GI50

Would you please look over these solved cases?
molecule: O=C(Cc1ccc(Cl)cc1)Nc1ccc2oc(-c3ccccc3)nc2c1
GI50: > 100 µM (inactive)
--
molecule: COc1ccc(C(=O)c2c(-c3ccccc3NC(=O)C(F)(F)F)[nH]c3ccccc23)cc1
GI50: 2.81 µM (inactive)
--
molecule: COc1cc2c(cc1-c1coc3cc(OCC=C(C)C)ccc3c1=O)OCO2
GI50: 6.32 µM (inactive)
--
molecule: CC(C)(C)[Si](C)(C)OCC1OC(n2ccc(=O)[nH]c2=O)C(O[Si](C)(C)C(C)(C)C)/C1=N/O (stereo not given)
GI50: 2.71 µM (inactive)
--
molecule: CCOC(=O)CSc1[nH]c2nc(C)nc(Cl)c2c1C#N
GI50: > 10 µM (inactive)

QUERY: Note down GI50 recorded for "Oc1ccccc1CNCc1nc2ccccc2[nH]1"
RESULT: 50 µM (inactive)

QUERY: Retrieve GI50 measured for N=C(N)SC1c2ccccc2-c2cc([N+](=O)[O-])ccc21 (stereo not given) and print it.
RESULT: 3.86 µM (inactive)

----------
Test system: UACC-62
Experiment: NCI tumour cell line growth inhibition, 48 h
Calls of active or inactive are those of the source. Cut-off read from the data, not from the text of the source: active = GI50 up to about 1.1 µM and inactive = higher.
The entries below come with measured GI50 values attached.

compound: Cc1cnc2c(c1)C(=O)N(c1ccc([N+](=O)[O-])cc1)S2(=O)=O
GI50: 75.5 µM (inactive)
//
compound: CC1(C)S[C@@H]2[C@H](N3C(=O)c4ccccc4C3=O)CN2[C@H]1NC(=O)N[C@@H]1N2C[C@@H](N3C(=O)c4ccccc4C3=O)[C@H]2SC1(C)C
GI50: > 100 µM (inactive)
//
compound: Cc1cc(OCC(O)CO)ccc1-c1ccccc1 (centres undefined)
GI50: > 100 µM (inactive)
//
compound: COC(=O)C(Cc1nc2ccccc2nc1O)C(=O)C(=O)Nc1ccc([N+](=O)[O-])cc1[N+](=O)[O-] (centres undefined)
GI50: 18.7 µM (inactive)
//
compound: O=C(O)c1c(O)c2cc(Br)ccc2oc1=O
GI50: > 100 µM (inactive)
//
compound: COc1cc(/C=C2/SC(c3ccccc3)N(c3cc(Cl)ccc3Cl)C2=O)cc(OC)c1OC (centres undefined)
GI50: 44.2 µM (inactive)
//
compound: COc1ccc(OC(C(=O)O)c2ccccc2)c2c1CCCC2=O (centres undefined)
GI50: > 100 µM (inactive)
//
compound: COc1ccc(C(=O)N2CCN(c3ccc4c(c3)OCC(=O)N4)CC2)cc1
GI50: > 100 µM (inactive)

QUERY: Note GI50 for the compound shown: "O=C1/C(=C/c2cccc([N+](=O)[O-])c2)COc2ccccc21"
RESULT: 1.67 µM (inactive)

QUERY: Read the entry CCCN(CCCC(NC(C)=O)C(=O)NCc1ccccc1)C(=O)NC (centres undefined) and write its reported GI50.
RESULT: > 100 µM (inactive)

QUERY: Provide GI50 value for the following compound: CCCC(=O)OCC1(CO)C/C(=C/CC(C(C)C)C(C)C)C(=O)O1 (centres undefined)
RESULT: > 100 µM (inactive)

QUERY: Indicate the recorded GI50 value for this compound: "CCOC(=O)NC(=S)c1ccc(O)c2ccccc12"
RESULT: 68.1 µM (inactive)

QUERY: Indicate its recorded GI50; the compound in question is "COc1cc(/C=C/c2ccnc3ccccc23)cc(OC)c1OC"
RESULT: 3.17 µM (inactive)

QUERY: Indicate the recorded GI50 value for this compound: C=CC1C(OC2OC(CO)C(O)C(O)C2O)OC=C(C(=O)OC)C1CC1CC(=O)CC(CCc2ccc(O)cc2)O1 (centres undefined)
RESULT: > 100 µM (inactive)

QUERY: Please look at this compound and report its GI50: CC1CC[C@]2(C(=O)O)CCC3(C)C(=CC(=O)C4[C@@]5(C)CCC(=O)C(C)(C)C5CC[C@]43C)[C@@H]2[C@H]1C (some centres undefined)
RESULT: 13.2 µM (inactive)

QUERY: Answer with the recorded GI50 of Cc1cccc2c1C(=O)C1(Cc3ccccc3C1=O)C2 (centres undefined) only.
RESULT: 84.7 µM (inactive)

QUERY: In one line, give reported GI50 of the entry C=C(C)C(=O)OC1C/C(CO)=C\C(O)C/C(C)=C/C2OC(=O)C(=C)C21 (centres undefined) .
RESULT: 19.9 µM (inactive)

----------
Tested on: CCRF-CEM
Test: NCI tumour cell line growth inhibition, 48 h
The source made the active and inactive calls. Rule as the data show it: active = GI50 up to about 1.1 µM and inactive = higher.
recorded.metric: GI50

compound: O=C(NCCO)c1cc2c(cn1)[nH]c1ccccc12
recorded.metric: GI50
recorded.result: > 100 µM (inactive)

QUERY: Fill in reported GI50 for this entry: CC1=C2C(O)C(C(C)C(=O)NCC(C)C)CCC2(C)C=CC1=O (configuration not stated)
RESULT: > 100 µM (inactive)

QUERY: Give recorded GI50. "Oc1ccc(Cl)cc1-c1cc(-c2ccccc2)nc(S)n1"
RESULT: > 100 µM (inactive)

QUERY: Give recorded GI50. CCC(CCCC[C@H]1CC[C@@H]2CC(=O)C[C@H]12)OC (some centres not stated)
RESULT: > 100 µM (inactive)

QUERY: Indicate its recorded GI50; the compound in question is "COc1ccc(C(=O)N2CCN(c3ccc4c(c3)OCC(=O)N4)CC2)cc1"
RESULT: > 100 µM (inactive)

QUERY: In one line, give reported GI50 of the entry CCCCCCCC(=O)OC(COC(=O)Cc1ccccc1)COC(=O)C(C)(C)C (configuration not stated) .
RESULT: > 100 µM (inactive)

----------
System: SF-268
Assay: NCI tumour cell line growth inhibition, 48 h
Activity calls are given as the source filed them. Rule as the data show it: active = GI50 up to about 1.1 µM and inactive = higher.
Recorded GI50 by entry

Would you please look over these solved cases?
compound: CC1(C)C2CCC(=O)C1C(OCc1ccccc1)C2 (stereo not drawn)
tested.on: SF-268
GI50: > 100 µM (inactive)
--
compound: COC1=N[C@H](C(C)C)C(OC)=N[C@H]1Cc1ccc(C[C@@H]2N=C(OC)[C@@H](C(C)C)N=C2OC)s1
tested.on: SF-268
GI50: 67.8 µM (inactive)
--
compound: CC1(C)CC(=O)C(CC(C(=O)C(=O)Nc2cc(C(F)(F)F)ccc2Cl)C(=O)c2ccco2)C(=O)C1 (stereo not drawn)
tested.on: SF-268
GI50: > 100 µM (inactive)
--
compound: CCCCCCCCCCCCCCNCC(OC)OC
tested.on: SF-268
GI50: 18.5 µM (inactive)
--
compound: CCC(CCCC[C@H]1CC[C@@H]2CC(=O)C[C@H]12)OC (stereo partly drawn)
tested.on: SF-268
GI50: > 100 µM (inactive)

QUERY: Print SF-268 GI50 for "O=[N+]([O-])/C=C/c1cc2ccccc2[nH]1" .
RESULT: 16.9 µM (inactive)

QUERY: Enter GI50 (test system SF-268) for O=c1[nH]c2cc(Cl)ccc2nc1/C(=N/Nc1ccccc1)C(O)c1ccco1 (stereo not drawn)
RESULT: > 100 µM (inactive)

QUERY: Fill in GI50 for O=C(NN1C(=O)CSC1c1ccco1)c1ccncc1 (stereo not drawn) tested with SF-268.
RESULT: > 100 µM (inactive)

The reported measurements were obtained from ChEMBL document CHEMBL1201862.
